B1: Receptor-interacting serine/threonine-protein kinase 2, residues 438 to 518; numbered along this chain, O43353 (parent)
chain: QWIQSKREDIVNQMTEACLNQSLDALLSRDLIMKEDYELVSTKPTRTSKVRQLLDTTDIQGEEFAKVIVQKLKDNKQMGLQ

- Variants of: B1
- test: abundance fitness (aPCA) (normalised: wild type 0, dead -1); higher = more abundant; growth selection in yeast, the domain comes from the species named
- condition info: Homo sapiens
For each entry below, report its abundance fitness value.

Tell me measured abundance fitness for `K66A` please.
-0.172

Tell me measured abundance fitness for `Q70L` please.
-0.687

Tell me measured abundance fitness for `M33R` please.
0.141

Tell me measured abundance fitness for `L26C` please.
-0.618

Tell me measured abundance fitness for `L27M` please.
0.128

Tell me measured abundance fitness for `L31P` please.
-0.588

Tell me measured abundance fitness for `V67N` please.
-0.651

Tell me measured abundance fitness for `S41D` please.
-0.448

Tell me measured abundance fitness for `R46L` please.
0.143

Tell me measured abundance fitness for `L72S` please.
-0.587

Tell me measured abundance fitness for `V67A` please.
-0.674

Tell me measured abundance fitness for `T57M` please.
0.108

Tell me measured abundance fitness for `S22V` please.
0.1

Tell me measured abundance fitness for `L26E` please.
-0.364

Tell me measured abundance fitness for `S28R` please.
-0.082

Tell me measured abundance fitness for `I68F` please.
-0.924

Tell me measured abundance fitness for `L39N` please.
-0.034

Tell me measured abundance fitness for `E63P` please.
-0.432

Tell me measured abundance fitness for `V40M` please.
-0.815

Tell me measured abundance fitness for `R51K` please.
-0.071

Tell me measured abundance fitness for `F64E` please.
-0.123

Tell me measured abundance fitness for `T47N` please.
-0.286
